Reported Binding affinity (RU) values follow for various binders
Molecular target: acetylcholine receptor
Test: SPR, AchR immobilized on CM5 chip, peptide at 10 µM
For clarity, give the value followed by its unit.

Previously resolved entries follow.
BINDER	REPORTED RESULT
KLRRR [5mer-131]	72 RU
RGLYR [5mer-427]	87 RU
RQVTK [5mer-440]	57 RU
KRFSK [5mer-144]	58 RU
RRVSR [5mer-426]	57 RU

-- ask Which Binding affinity (RU) value belongs to KQQYR [5mer-444] ?
-- reply 65 RU
